Test: qHTS of pediatric cancer cell lines to identify multiple opportunities for drug repurposing: Primary screen for A673 cells (AID 1347092); further: nearly all actives have a fitted effect of over 45% in size; further: potency means the concentration at half of the fitted maximal effect
Details: A673 Ewing sarcoma viability, CellTiter-Glo ATP luminescence, 48 h; series mostly up to 46 µM
Inconclusive results are not listed. Calls of active or inactive are those of the source. The call rests on the fitted dose curve; in most records, active means well fitted cell-killing curve with a large enough effect; inconclusive means small, poorly fitted or top-dose-only effect; inactive means no such curve, though single readings can be large or run the other way.
Property: Potency

>  <Record smiles>
COC(=O)Nc1nc2ccc(C(=O)C3CC3)cc2[nH]1

>  <Result>
1060 nM (active)

$$$$
>  <Record smiles>
COc1cc2c3cc1Oc1cc(ccc1O)C[C@@H]1c4c(cc(OC)c(O)c4Oc4ccc(cc4)C[C@@H]3N(C)CC2)CC[N+]1(C)C

>  <Result>
inactive

$$$$
>  <Record smiles>
CC1(C)S[C@@H]2[C@H](NC(=O)[C@H](N)c3ccccc3)C(=O)N2[C@H]1C(=O)O

>  <Result>
inactive

$$$$
>  <Record smiles>
c1ccc2sc(SN3CCOCC3)nc2c1

>  <Result>
inactive

$$$$

Now for another entry.
Query: Potency for `CC(C)OC(=O)c1cc(C(=O)OC(C)C)cc([N+](=O)[O-])c1` ?
Response: inactive

* * *

Assay: qHTS for Inhibitors of ATXN expression: Validation of Cytotoxic Assay (AID 588349);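 further: cells exposed to compound for 72 hr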
Conditions: cytotoxicity counter-screen for ATXN expression inhibitors, cell viability; series mostly up to 57.1 µM
Inconclusive results are not listed. The source made the active and inactive calls. Calls come from the whole dose curve; as a rule, active = well fitted cell-killing curve with a large enough effect; inconclusive = small, poorly fitted or top-dose-only effect, or effect the other way; inactive = flat fitted curve, though single readings scatter.
Give one outcome, nothing more. List: true (1) (active), false (0) (inactive)

>  <Record smiles>
c1ccc(-c2ccccn2)nc1

>  <Assigned class>
false (0)

$$$$
>  <Record smiles>
O=C1NC(=O)/C(=C/c2ccc(-c3ccc(F)cc3O)o2)S1

>  <Assigned class>
false (0)

$$$$
>  <Record smiles>
Nc1nc(Cl)nc2c1ncn2[C@@H]1O[C@H](CO)[C@@H](O)[C@H]1O

>  <Assigned class>
false (0)

$$$$

Query: Hi team, can someone confirm the assay call for `O=C(O)c1cc(=O)c2c(Cl)cc(Cl)cc2[nH]1` ?
Response: false (0)

Query: Hi team, can someone confirm the assay call for `CCCCC#Cc1nc(NC)c2ncn([C@@H]3O[C@H](CO)[C@@H](O)[C@H]3O)c2n1` ?
Response: false (0)

Query: Hi team, can someone confirm the assay call for `NCCSSCCN` ?
Response: false (0)

Query: Hi team, can someone confirm the assay call for `C[N+](C)(CCCCCC[N+](C)(C)CCCN1C(=O)c2cccc3cccc(c23)C1=O)CCCN1C(=O)c2cccc3cccc(c23)C1=O` ?
Response: false (0)

Query: Hi team, can someone confirm the assay call for `CN(C)CCCO[C@@H]1[C@H]2OC(C)(C)O[C@H]2O[C@@H]1[C@H](O)CO` ?
Response: false (0)

Query: Hi team, can someone confirm the assay call for `NC[C@@H]1O[C@H](C23CC4CC(CC(C4)C2)C3)Cc2c1ccc(O)c2O` ?
Response: true (1)

Query: Hi team, can someone confirm the assay call for `O=C(O)[C@@H]1C[C@H](C(=O)O)N1` ?
Response: false (0)

Query: Hi team, can someone confirm the assay call for `CN1CCC[C@H]1c1cccnc1` ?
Response: false (0)

* * *

Target: Beta-2 adrenergic receptor (Homo sapiens)
Assay: qHTS validation assay of beta-arrestin-biased ligands of beta2-adrenergic receptor (AID 485366); further: 0% is about no effect
Details: cell-based beta-arrestin recruitment to ADRB2, qHTS; series mostly up to 46.1 µM
Calls of active or inactive are those of the source. Calls follow the shape of the dose curve; as a rule, active = well fitted curve in the direction sought with a large enough effect; inconclusive = small, poorly fitted or top-dose-only effect, or effect the other way, or another doubt; inactive = no such curve, though single readings can be large or run the other way.
Property: outcome

Past entries and their recorded results:
>  <Compound>
Cc1ccc(S(=O)(=O)/C=C/C#N)cc1

>  <outcome>
inactive

$$$$
>  <Compound>
CN(C)CCC(c1ccc(Cl)cc1)c1ccccn1 (stereo not given)

>  <outcome>
inactive

$$$$
>  <Compound>
NC(=S)c1ccc[n+]([C@@H]2O[C@@H](COP(=O)([O-])OP(=O)(O)OC[C@H]3O[C@@H](n4cnc5c(N)ncnc54)[C@H](OP(=O)(O)O)[C@@H]3O)C(O)C2O)c1 (stereo not given in full)

>  <outcome>
inactive

$$$$
>  <Compound>
Cc1nc2sccn2c(=O)c1CCN1CCC(=C(c2ccccc2)c2ccc(F)cc2)CC1

>  <outcome>
inactive

$$$$
>  <Compound>
CNCC[C@H](Oc1ccc(C(F)(F)F)cc1)c1ccccc1

>  <outcome>
inactive

$$$$
>  <Compound>
CC(C)Cc1ccc([C@H](C)C(=O)O)cc1

>  <outcome>
inactive

$$$$

Query: Lab note: need outcome for `c1cnc2c(c1)ccc1cccnc12` on Beta-2 adrenergic receptor (Homo sapiens), anyone have it?
Response: inactive

Query: Lab note: need outcome for `C=CC(=O)c1ccc(CCCCCC)cc1` on Beta-2 adrenergic receptor (Homo sapiens), anyone have it?
Response: inactive

Query: Lab note: need outcome for O=C(CCCCCN1CCN(c2ccccc2-c2ccccc2)CC1)NC1CCCc2ccccc21 (stereo not given) on Beta-2 adrenergic receptor (Homo sapiens), anyone have it?
Response: inactive

Query: Lab note: need outcome for COc1cc2nc(N3CCN(C(=O)OCc4ccccc4)C(C(=O)NC(C)(C)C)C3)nc(N)c2cc1OC (stereo not given) on Beta-2 adrenergic receptor (Homo sapiens), anyone have it?
Response: inactive
